Molecular target: DNA topoisomerase 1 (Homo sapiens, UniProt P11387)
List of pIC50 values.
Remember the convention: pIC50 equals -log10 of concentration in molar.

Worked set:
Cc1nc[nH]c1C(=O)NNC(=S)NC(=O)c1ccccc1 [DNA topoisomerase inhibitor, 1] ... 4.00
O=C(NNC(=S)Nc1ccccc1)C1CCNCC1 [DNA topoisomerase inhibitor, 3] ... 3.60
O=C(NNC(=S)Nc1ccc(I)cc1)C1CCNCC1 [DNA topoisomerase inhibitor, 5] ... 3.60
O=C(NNC(=S)Nc1ccc(Br)cc1)C1CCNCC1 [DNA topoisomerase inhibitor, 6] ... 3.60
COc1ccc(NC(=S)NNC(=O)C2CCNCC2)cc1 [DNA topoisomerase inhibitor, 4] ... 3.60

Now for another entry.
pIC50 for O=C(NC(=S)NNC(=O)c1cc2ccccc2[nH]1)c1ccccc1 [DNA topoisomerase inhibitor, 2] is 4.00

###

Target: DNA topoisomerase I (Homo sapiens)
Experiment: Supercoiled pHOT1 DNA (0.5 μg) was incubated with four units of human topoisomerase I in relaxation buffer (10mM Tris-HCl (pH 7.8), 1mM EDTA, 0.15M NaCl, 0.1% BSA, 0.1 spermidine, 5% glycerol), in the presence of varying concentrations of the test compounds. Reactions were carried out at 37 °Cfor 1 h and then terminated by the addition o
List of IC50 values.
Note: unit µM is implicit; provide only the numeric part.

O=C(NNC(=S)Nc1ccc(Br)cc1)C1CCNCC1 [DNA topoisomerase inhibitor, 6] ... 250

IC50 for Cc1nc[nH]c1C(=O)NNC(=S)NC(=O)c1ccccc1 [DNA topoisomerase inhibitor, 1] is 50

IC50 for O=C(NC(=S)NNC(=O)c1cc2ccccc2[nH]1)c1ccccc1 [DNA topoisomerase inhibitor, 2] is 50

IC50 for O=C(NNC(=S)Nc1ccccc1)C1CCNCC1 [DNA topoisomerase inhibitor, 3] is 250

###

Target: DNA topoisomerase I (Homo sapiens)
Test: Supercoiled pHOT1 DNA (0.5 μg) was incubated with four units of human topoisomerase I in relaxation buffer (10mM Tris-HCl (pH 7.8), 1mM EDTA, 0.15M NaCl, 0.1% BSA, 0.1 spermidine, 5% glycerol), in the presence of varying concentrations of the test compounds. Reactions were carried out at 37 °Cfor 1 h and then terminated by the addition o
List of IC50 values.
Note: unit µM is implicit; provide only the numeric part.

O=C(NNC(=S)Nc1ccc(I)cc1)C1CCNCC1 [DNA topoisomerase inhibitor, 5] ... 250

Now for another entry.
IC50 for COc1ccc(NC(=S)NNC(=O)C2CCNCC2)cc1 [DNA topoisomerase inhibitor, 4] is 250

###

Biological target: DNA topoisomerase 1 (Homo sapiens, UniProt P11387)
Sequence (P11387 whole entry): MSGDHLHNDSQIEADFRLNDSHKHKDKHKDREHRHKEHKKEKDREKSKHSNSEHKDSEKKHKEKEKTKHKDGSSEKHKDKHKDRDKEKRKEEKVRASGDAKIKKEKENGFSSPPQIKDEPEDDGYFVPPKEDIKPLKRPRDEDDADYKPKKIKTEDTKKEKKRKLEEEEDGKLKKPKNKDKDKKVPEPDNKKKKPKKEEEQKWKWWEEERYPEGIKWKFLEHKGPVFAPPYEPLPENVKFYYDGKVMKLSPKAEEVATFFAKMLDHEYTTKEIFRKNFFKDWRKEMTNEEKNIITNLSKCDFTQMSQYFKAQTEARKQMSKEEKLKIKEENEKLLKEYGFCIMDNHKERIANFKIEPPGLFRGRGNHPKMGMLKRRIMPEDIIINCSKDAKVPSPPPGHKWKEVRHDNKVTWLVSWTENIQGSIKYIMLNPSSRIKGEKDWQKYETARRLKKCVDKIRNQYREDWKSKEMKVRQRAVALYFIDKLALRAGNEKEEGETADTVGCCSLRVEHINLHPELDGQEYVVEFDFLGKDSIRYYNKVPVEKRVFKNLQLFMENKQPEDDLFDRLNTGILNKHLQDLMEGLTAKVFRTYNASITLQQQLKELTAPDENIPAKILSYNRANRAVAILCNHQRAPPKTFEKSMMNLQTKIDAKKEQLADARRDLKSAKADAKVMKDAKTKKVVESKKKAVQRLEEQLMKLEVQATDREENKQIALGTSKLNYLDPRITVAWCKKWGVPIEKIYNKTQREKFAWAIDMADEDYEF
pIC50: −log10 of the molar value.
endpoint: pIC50

Worked set:
CCc1ccc(NC(=S)NNC(=O)C2CCNCC2)cc1 [DNA topoisomerase inhibitor, 7] ... < 3.46
COc1cc([C@@H]2c3cc4c(cc3[C@@H](O[C@@H]3O[C@@H]5CO[C@@H](C)O[C@H]5[C@H](O)[C@H]3O)[C@H]3COC(=O)[C@H]23)OCO4)cc(OC)c1O ... < 3.46

Now for another entry.
pIC50 for CCNC(=S)NNC(=O)C1CCNCC1 [DNA topoisomerase inhibitor, 8] is < 3.46
